Biological target: Coiled-coil domain-containing protein 6/Proto-oncogene tyrosine-protein kinase receptor Ret (Homo sapiens, UniProt P07949)
Sequence (Q16204 whole entry, one chain of several, further chain, the tested form may be a part): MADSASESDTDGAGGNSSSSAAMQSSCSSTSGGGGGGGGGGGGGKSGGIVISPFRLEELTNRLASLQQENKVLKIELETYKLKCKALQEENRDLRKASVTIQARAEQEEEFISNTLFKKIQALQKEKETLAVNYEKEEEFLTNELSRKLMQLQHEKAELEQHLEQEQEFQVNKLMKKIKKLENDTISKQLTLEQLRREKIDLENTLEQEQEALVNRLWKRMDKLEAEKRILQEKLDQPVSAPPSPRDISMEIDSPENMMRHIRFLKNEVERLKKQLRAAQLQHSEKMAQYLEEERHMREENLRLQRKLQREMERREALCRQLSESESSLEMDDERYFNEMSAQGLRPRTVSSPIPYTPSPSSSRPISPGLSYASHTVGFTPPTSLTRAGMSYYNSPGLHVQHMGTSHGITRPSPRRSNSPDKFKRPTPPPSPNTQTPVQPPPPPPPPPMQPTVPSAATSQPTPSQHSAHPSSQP
IC50 listing for selected molecules.

Chemical Smiles	Quantity Unit	IC50
COc1ccc(CN2CCCN(c3ccc(-c4cc(-c5cc6n(n5)CCC6)cn5ncc(C#N)c45)cn3)CC2)cn1	nM	30.7
COc1ccc(CN2C3CC2CN(c2ccc(-c4cc(NCC(C)(C)O)cn5ncc(C#N)c45)cn2)C3)cn1	nM	4.6
COc1ccc(CN(C)CCN(C)c2ccc(-c3cc(-c4cnn(C)c4)cn4ncc(C#N)c34)cn2)cn1	nM	17.2

---

Proto-oncogene tyrosine-protein kinase receptor Ret (Homo sapiens) data, read-out pIC50
Sequence (P07949 whole entry): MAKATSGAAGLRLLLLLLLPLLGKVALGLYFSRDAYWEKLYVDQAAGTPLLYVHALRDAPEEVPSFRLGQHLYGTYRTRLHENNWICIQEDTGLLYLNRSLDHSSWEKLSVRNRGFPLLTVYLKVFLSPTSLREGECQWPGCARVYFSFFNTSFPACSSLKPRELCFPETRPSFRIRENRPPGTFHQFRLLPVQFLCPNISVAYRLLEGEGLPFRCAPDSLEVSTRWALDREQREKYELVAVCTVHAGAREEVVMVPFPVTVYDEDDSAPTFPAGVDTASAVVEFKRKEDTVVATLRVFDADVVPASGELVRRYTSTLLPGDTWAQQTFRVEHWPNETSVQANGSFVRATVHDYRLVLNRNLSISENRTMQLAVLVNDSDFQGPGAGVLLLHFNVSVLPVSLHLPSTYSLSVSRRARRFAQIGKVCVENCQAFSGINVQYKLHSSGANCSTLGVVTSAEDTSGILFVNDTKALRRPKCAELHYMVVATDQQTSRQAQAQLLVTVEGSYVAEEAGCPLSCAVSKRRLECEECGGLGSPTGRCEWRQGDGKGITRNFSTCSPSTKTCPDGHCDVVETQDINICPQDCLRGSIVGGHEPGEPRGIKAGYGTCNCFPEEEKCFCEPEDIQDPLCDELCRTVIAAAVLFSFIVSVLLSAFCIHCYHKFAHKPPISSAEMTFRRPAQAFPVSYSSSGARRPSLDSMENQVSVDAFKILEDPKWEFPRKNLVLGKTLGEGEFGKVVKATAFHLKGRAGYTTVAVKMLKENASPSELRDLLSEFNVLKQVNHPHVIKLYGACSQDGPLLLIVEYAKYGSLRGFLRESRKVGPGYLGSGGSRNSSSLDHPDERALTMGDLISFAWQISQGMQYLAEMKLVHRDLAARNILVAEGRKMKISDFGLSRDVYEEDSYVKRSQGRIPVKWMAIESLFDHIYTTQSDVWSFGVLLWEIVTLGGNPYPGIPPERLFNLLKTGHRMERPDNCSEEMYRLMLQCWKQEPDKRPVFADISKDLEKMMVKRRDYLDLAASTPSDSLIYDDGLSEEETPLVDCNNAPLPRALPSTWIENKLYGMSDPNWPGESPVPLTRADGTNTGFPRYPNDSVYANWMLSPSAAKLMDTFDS
pIC50: −log10 of the molar value.

Compound	Experimental System	pIC50
COc1ccc(CN2C3CC2CN(c2ccc(-c4cc(-c5cc6n(n5)CCC6)cn5ncc(C#N)c45)cn2)C3)cn1	Proto-oncogene tyrosine-protein kinase receptor Ret (Homo sapiens)	8.65
COc1ccc(CN2C3CC2CN(c2ccc(-c4cc(N5CCCC(O)C5)cn5ncc(C#N)c45)cn2)C3)cn1 (stereo not drawn)	Proto-oncogene tyrosine-protein kinase receptor Ret (Homo sapiens)	7.97
COc1ccc(CN2C3CC2CN(c2ccc(-c4cc(N5CC6(COC6)C5)cn5ncc(C#N)c45)cn2)C3)cn1	Proto-oncogene tyrosine-protein kinase receptor Ret (Homo sapiens)	8.14
COc1ccc(CN2C3CC2CN(c2ccc(-c4cc(N5CCOC[C@@H]5C)cn5ncc(C#N)c45)cn2)C3)cn1	Proto-oncogene tyrosine-protein kinase receptor Ret (Homo sapiens)	7.61
COc1ccc(C(=O)N2CCN(c3ccc(-c4cc(-c5cc6n(n5)CCC6)cn5ncc(C#N)c45)cn3)CC2)cn1	Proto-oncogene tyrosine-protein kinase receptor Ret (Homo sapiens)	7.90
COc1ccc(CN2C3CC2CN(c2ccc(-c4cc(N5CC6CC(C5)N6C)cn5ncc(C#N)c45)cn2)C3)cn1	Proto-oncogene tyrosine-protein kinase receptor Ret (Homo sapiens)	8.26
COc1ccc(CN2C3CC2CN(c2ccc(-c4cc(N(CC5CC5)CC(C)(C)O)cn5ncc(C#N)c45)cn2)C3)cn1	Proto-oncogene tyrosine-protein kinase receptor Ret (Homo sapiens)	6.71
COc1ccc(CN2C3CC2CN(c2ccc(-c4cc(NCC(C)(C)O)cn5ncc(C#N)c45)cn2)C3)cn1	Proto-oncogene tyrosine-protein kinase receptor Ret (Homo sapiens)	8.89
COc1ccc(CN2C3CC2CN(c2ccc(-c4cc(N5CCNCC5)cn5ncc(C#N)c45)cn2)C3)cn1	Proto-oncogene tyrosine-protein kinase receptor Ret (Homo sapiens)	8.28
COc1ccc(CN2C3CC2CN(c2ccc(-c4cc(N5CC(C)(C)OC5C5CC5)cn5ncc(C#N)c45)cn2)C3)cn1 (stereo not drawn)	Proto-oncogene tyrosine-protein kinase receptor Ret (Homo sapiens)	7.67
COc1ccc(CN2CCCN(c3ccc(-c4cc(-c5cc6n(n5)CCC6)cn5ncc(C#N)c45)cn3)CC2)cn1	Proto-oncogene tyrosine-protein kinase receptor Ret (Homo sapiens)	7.58
COc1ccc(CN2C3CC2CN(c2ccc(-c4cc(N5CCOCC5)cn5ncc(C#N)c45)cn2)C3)cn1	Proto-oncogene tyrosine-protein kinase receptor Ret (Homo sapiens)	8.96
COc1ccc(CN2C3CC2CN(c2ccc(-c4cc(N5CCP(C)(=O)CC5)cn5ncc(C#N)c45)cn2)C3)cn1	Proto-oncogene tyrosine-protein kinase receptor Ret (Homo sapiens)	8.39

---

Target: Proto-oncogene tyrosine-protein kinase receptor Ret [M918T] (Homo sapiens, UniProt P07949, M918T)
Assay: Inhibition of RET Family Kinases Activity
pIC50: −log10 of the molar value.
pIC50 listing for selected compounds.

Chemical Smiles	pIC50
COc1ccc(CN2C3CC2CN(c2ccc(-c4cc(N5CCOCC5)cn5ncc(C#N)c45)cn2)C3)cn1	9.04
COc1ccc(CN2C3CC2CN(c2ccc(-c4cc(-c5cc6n(n5)CCC6)cn5ncc(C#N)c45)cn2)C3)cn1	8.39
COc1ccc(CN2C3CC2CN(c2ccc(-c4cc(N5CC6CC(C5)N6)cn5ncc(C#N)c45)cn2)C3)cn1	8.62

---

Target: Vascular endothelial growth factor receptor 2 (Homo sapiens)
Sequence (P35968 whole entry): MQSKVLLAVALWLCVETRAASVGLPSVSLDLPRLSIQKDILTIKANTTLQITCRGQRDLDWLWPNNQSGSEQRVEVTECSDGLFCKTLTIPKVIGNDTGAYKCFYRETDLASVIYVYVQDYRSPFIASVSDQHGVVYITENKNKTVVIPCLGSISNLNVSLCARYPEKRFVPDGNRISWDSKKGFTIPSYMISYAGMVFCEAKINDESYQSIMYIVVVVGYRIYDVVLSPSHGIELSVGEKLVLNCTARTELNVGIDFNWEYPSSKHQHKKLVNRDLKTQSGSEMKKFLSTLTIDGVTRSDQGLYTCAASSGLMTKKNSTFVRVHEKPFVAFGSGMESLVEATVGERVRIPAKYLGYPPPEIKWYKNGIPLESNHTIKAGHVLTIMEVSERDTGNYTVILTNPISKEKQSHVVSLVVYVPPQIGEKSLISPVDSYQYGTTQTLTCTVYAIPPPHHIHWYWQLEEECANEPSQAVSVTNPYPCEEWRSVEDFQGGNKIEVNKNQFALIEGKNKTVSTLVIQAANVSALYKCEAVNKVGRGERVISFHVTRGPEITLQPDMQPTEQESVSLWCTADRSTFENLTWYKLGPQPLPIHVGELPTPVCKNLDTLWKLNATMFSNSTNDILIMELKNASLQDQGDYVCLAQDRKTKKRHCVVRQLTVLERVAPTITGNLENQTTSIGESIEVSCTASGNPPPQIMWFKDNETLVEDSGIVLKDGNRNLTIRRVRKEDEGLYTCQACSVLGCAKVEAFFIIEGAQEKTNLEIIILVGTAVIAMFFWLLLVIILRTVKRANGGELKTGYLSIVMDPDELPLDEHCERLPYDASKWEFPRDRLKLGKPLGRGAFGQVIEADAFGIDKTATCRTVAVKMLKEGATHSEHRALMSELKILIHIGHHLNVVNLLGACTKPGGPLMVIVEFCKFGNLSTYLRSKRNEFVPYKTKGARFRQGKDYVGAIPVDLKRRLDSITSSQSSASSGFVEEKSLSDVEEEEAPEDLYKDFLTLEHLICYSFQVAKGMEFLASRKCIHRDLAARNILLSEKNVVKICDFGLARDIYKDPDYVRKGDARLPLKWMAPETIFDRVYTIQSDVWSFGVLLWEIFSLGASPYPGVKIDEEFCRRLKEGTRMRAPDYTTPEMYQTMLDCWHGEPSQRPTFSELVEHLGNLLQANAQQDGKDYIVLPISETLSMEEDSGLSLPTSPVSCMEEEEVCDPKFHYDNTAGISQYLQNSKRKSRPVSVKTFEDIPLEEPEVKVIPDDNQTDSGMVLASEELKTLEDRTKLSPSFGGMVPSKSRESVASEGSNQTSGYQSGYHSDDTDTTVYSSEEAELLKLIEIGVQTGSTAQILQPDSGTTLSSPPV
Could you please mark yes for values of IC50 below 200 nM and no for values at or above it?

Compound	Assigned Label
COc1ccc(CN2C3CC2CN(c2ccc(-c4cc(N5CCCC(O)C5)cn5ncc(C#N)c45)cn2)C3)cn1 (stereo unspecified)	no
COc1ccc(CN2CCCN(c3ccc(-c4cc(-c5cc6n(n5)CCC6)cn5ncc(C#N)c45)cn3)CC2)cn1	no
COc1ccc(CN2C3CC2CN(c2ccc(-c4cc(N5CCOCC5)cn5ncc(C#N)c45)cn2)C3)cn1	yes
COc1ccc(CN2C3CC2CN(c2ccc(-c4cc(N5CCN(C)C(=O)C5)cn5ncc(C#N)c45)cn2)C3)cn1	yes
COc1ccc(CN2C3CC2CN(c2ccc(-c4cc(N5CC(C)(C)OC5C5CC5)cn5ncc(C#N)c45)cn2)C3)cn1 (stereo unspecified)	no
COc1ccc(CN2C3CC2CN(c2ccc(-c4cc(N5CCNCC5)cn5ncc(C#N)c45)cn2)C3)cn1	no

---

Target: Proto-oncogene tyrosine-protein kinase receptor Ret [M918T] (Homo sapiens, UniProt P07949, M918T)
Assay: Inhibition of RET Family Kinases Activity
IC50 listing for selected compounds.

Chemical Smiles	IC50, nM
COc1ccc(CN2CCC(n3cc(-c4cc(-c5cnn(C)c5)cn5ncc(C#N)c45)cn3)CC2)cn1	53.1
COc1ccc(C(=O)N2CCN(c3ccc(-c4cc(-c5cc6n(n5)CCC6)cn5ncc(C#N)c45)cn3)CC2)cn1	10.7
COc1ccc(CN2CCCN(c3ccc(-c4cc(-c5cc6n(n5)CCC6)cn5ncc(C#N)c45)cn3)CC2)cn1	42.8
COc1ccc(CN2C3CC2CN(c2ccc(-c4cc(N5CCN(C)CC5)cn5ncc(C#N)c45)cn2)C3)cn1	2.78

---

Target: Coiled-coil domain-containing protein 6/Proto-oncogene tyrosine-protein kinase receptor Ret (Homo sapiens)
Observed Property: log10 IC50 (log10 of the value in nM)

Chemical Smiles	log10 IC50
COc1ccc(CN2C3CC2CN(c2ccc(-c4cc(N5CCN(C)CC5)cn5ncc(C#N)c45)cn2)C3)cn1	0.48
COc1ccc(CN2C3CC2CN(c2ccc(-c4cc(N5CC6CC(C5)N6)cn5ncc(C#N)c45)cn2)C3)cn1	0.56
COc1ccc(CN2C3CC2CN(c2ccc(-c4cc(N5CCOCC5)cn5ncc(C#N)c45)cn2)C3)cn1	-0.28
COc1ccc(CN2C3CC2CN(c2ccc(-c4cc(N5CCP(C)(=O)CC5)cn5ncc(C#N)c45)cn2)C3)cn1	0.33
COc1ccc(C(=O)N2CCN(c3ccc(-c4cc(-c5cc6n(n5)CCC6)cn5ncc(C#N)c45)cn3)CC2)cn1	0.78
COc1ccc(CN2C3CC2CN(c2ccc(-c4cc(N5CCN(C)C(=O)C5)cn5ncc(C#N)c45)cn2)C3)cn1	0.48

---

UniProt P07949 data, read-out IC50
Observed Property: IC50 (nM)

Molecule	Test Result
COc1ccc(CN2C3CC2CN(c2ccc(-c4cc(N5CCN(C)C(=O)C5)cn5ncc(C#N)c45)cn2)C3)cn1	0.674
COc1ccc(CN2C3CC2CN(c2ccc(-c4cc(N5CC6CC(C5)N6)cn5ncc(C#N)c45)cn2)C3)cn1	8.4
COc1ccc(CN2C3CC2CN(c2ccc(-c4cc(N5CCOC[C@H]5C)cn5ncc(C#N)c45)cn2)C3)cn1	19
COc1ccc(CN2C3CC2CN(c2ccc(-c4cc(N5CCOC(C)C5)cn5ncc(C#N)c45)cn2)C3)cn1 (centres undefined)	15.8

---

Biological target: Potassium voltage-gated channel subfamily H member 2 (Homo sapiens, UniProt Q12809)
Sequence (Q12809 whole entry): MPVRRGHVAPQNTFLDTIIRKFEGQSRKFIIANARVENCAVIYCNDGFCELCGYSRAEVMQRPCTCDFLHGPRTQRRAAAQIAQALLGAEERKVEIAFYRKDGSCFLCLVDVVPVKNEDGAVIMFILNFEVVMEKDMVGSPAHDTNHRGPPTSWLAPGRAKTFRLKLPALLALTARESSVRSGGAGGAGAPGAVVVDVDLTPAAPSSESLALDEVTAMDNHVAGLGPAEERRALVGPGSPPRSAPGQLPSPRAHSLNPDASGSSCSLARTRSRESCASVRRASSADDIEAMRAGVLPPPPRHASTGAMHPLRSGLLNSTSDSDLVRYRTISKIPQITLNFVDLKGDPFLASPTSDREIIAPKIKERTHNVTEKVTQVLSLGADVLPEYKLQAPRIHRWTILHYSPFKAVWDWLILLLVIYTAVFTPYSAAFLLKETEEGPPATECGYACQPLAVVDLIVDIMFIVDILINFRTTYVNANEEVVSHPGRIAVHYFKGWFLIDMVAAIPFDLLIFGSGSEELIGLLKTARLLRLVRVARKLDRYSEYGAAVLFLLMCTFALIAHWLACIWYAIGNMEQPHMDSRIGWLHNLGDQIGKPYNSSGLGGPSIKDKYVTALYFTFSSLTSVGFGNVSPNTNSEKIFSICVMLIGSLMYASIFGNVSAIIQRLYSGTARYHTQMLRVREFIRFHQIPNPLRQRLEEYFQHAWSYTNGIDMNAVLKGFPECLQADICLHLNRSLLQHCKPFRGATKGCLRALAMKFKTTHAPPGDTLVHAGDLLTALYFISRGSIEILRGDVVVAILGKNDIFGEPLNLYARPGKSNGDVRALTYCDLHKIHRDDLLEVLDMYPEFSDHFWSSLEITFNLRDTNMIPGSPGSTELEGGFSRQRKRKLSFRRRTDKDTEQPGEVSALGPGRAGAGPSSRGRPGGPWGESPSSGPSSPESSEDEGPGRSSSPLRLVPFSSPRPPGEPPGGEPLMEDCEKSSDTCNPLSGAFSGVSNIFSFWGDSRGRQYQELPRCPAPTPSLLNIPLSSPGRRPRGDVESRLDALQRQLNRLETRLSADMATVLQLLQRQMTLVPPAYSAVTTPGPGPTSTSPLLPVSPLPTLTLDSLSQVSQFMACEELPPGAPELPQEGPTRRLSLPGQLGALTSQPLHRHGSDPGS
Test: Inhibition of hERG Potassium Channel
Observed Property: IC50 (µM)

Molecule	Quantity Unit	Test Result
COc1ccc(CN2CCCN(c3ccc(-c4cc(-c5cc6n(n5)CCC6)cn5ncc(C#N)c45)cn3)CC2)cn1 [US20230322769, Compound 70]	µM	4.74

---

pIC50 listing for selected compounds.
Target: Proto-oncogene tyrosine-protein kinase receptor Ret [M918T] (Homo sapiens, UniProt P07949, M918T)
Test: Inhibition of RET Family Kinases Activity
pIC50: −log10 of the molar value.

Chemical Smiles	pIC50
COc1ccc(CN2C3CC2CN(c2ccc(-c4cc(N5CC6CC(C5)N6C)cn5ncc(C#N)c45)cn2)C3)cn1	8.77
COc1ccc(CN2CCN(c3nc(-c4cc(-c5cnn(C)c5)cn5ncc(C#N)c45)cs3)CC2)cn1	6.49
COc1ccc(CN2C3CC2CN(c2ccc(-c4cc(N5CCN(C)C(=O)C5)cn5ncc(C#N)c45)cn2)C3)cn1	8.83
COc1ccc(CN2C3CC2CN(c2ccc(-c4cc(NCC(C)(C)O)cn5ncc(C#N)c45)cn2)C3)cn1	8.26
COc1ccc(CN2C3CC2CN(c2ccc(-c4cc(N5CCP(C)(=O)CC5)cn5ncc(C#N)c45)cn2)C3)cn1	8.84
COc1ccc(CN(C)CCN(C)c2ccc(-c3cc(-c4cnn(C)c4)cn4ncc(C#N)c34)cn2)cn1	7.32
